System: LOX IMVI melanoma
protocol.notes: NCI-60 one-dose screen, 48 h (100 = growth as untreated, 0 = no growth, -100 = all killed)
condition.context: 10 µM
Compounds without any hit were thinned out: in the full panel of roughly 83,000, 20% have a hit.
property.label: growth (%)

- molecule: "COc1ccc(-c2ccc(/C=N/NC(=O)c3[nH]c4ccc(Br)cc4c3-c3ccccc3)o2)cc1"
  unit.spec: "%"
  endpoint.result: 26.7
- molecule: "Cc1cc(C)cc(Oc2cccc(-c3c(C)nnn3C3CCN(CCN(C)C)CC3)n2)c1"
  unit.spec: "%"
  endpoint.result: 2.35
- molecule: "CCCCCCCCCCCCCCCCCCCC(=O)NCCc1c[nH]c2ccc(OC(=O)NOCCOCCOCCOCCOCCOCCOCCOCCOCCOCCOCCOCCOCCOCCOCCOCCOCCOCCOCCOCCOCCOCCOC)cc12"
  unit.spec: "%"
  endpoint.result: -90.7
- molecule: "COc1ccc(NC(=O)Cn2c(/C=C/c3ccc(N(C)C)cc3)nc3ccccc3c2=O)cc1"
  unit.spec: "%"
  endpoint.result: 13.8

Source listed as PubChem BioAssay (NCI).
